Origin of values: the supplement of paper PMC10567573

# ASSAY_COMMENT: protein stability index of a GFP-peptide fusion (GPS, HEK-293T) (PSI 1-6); higher = more stable;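 further: 24-mer peptide tiles fused after GFP, lentivirally expressed, FACS-sorted into six equal bins by GFP/DsRed ratio, decoded by Illumina sequencing, PSI is the read-weighted mean bin number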
# ASSAY_CONTEXT: treatment: MLN4924 1 uM, 8 h; c terminus: a fixed tail appended
Below, each entry is listed with its recorded protein stability index.
Just the number.

Study these solved cases before continuing.
>  <RESIDUES>
PLHAPEAYFPYFKKHNVTAVVRLN [CDC14A]

>  <ASSAY_READOUT>
protein stability index

>  <TEST_VALUE>
2.08

$$$$
>  <RESIDUES>
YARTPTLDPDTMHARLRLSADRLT [TRIM14]

>  <ASSAY_READOUT>
protein stability index

>  <TEST_VALUE>
3.27

$$$$
>  <RESIDUES>
KSQLGFLNVTNYCHLAHELRLSCM [DCAF4]

>  <ASSAY_READOUT>
protein stability index

>  <TEST_VALUE>
2.57

$$$$
>  <RESIDUES>
VPFDIFTEEVKFYQLGEEALLKFR [KCNA4]

>  <ASSAY_READOUT>
protein stability index

>  <TEST_VALUE>
2.54

$$$$
>  <RESIDUES>
TGEHREFKLDKKYQRPQDSEDMWG [FBF1]

>  <ASSAY_READOUT>
protein stability index

>  <TEST_VALUE>
4.55

$$$$
>  <RESIDUES>
PSNFLEIDVSNPQTVGVGRGRFTT [SNX3]

>  <ASSAY_READOUT>
protein stability index

>  <TEST_VALUE>
3.8

$$$$
>  <RESIDUES>
EVDSGRQIEYEYKLAQALHEMREQ [LMNB1]

>  <ASSAY_READOUT>
protein stability index

>  <TEST_VALUE>
4.43

$$$$
>  <RESIDUES>
AGGTSDDPEPSGPHLPRVMLPGVL [SCNN1D]

>  <ASSAY_READOUT>
protein stability index

>  <TEST_VALUE>
4.16

$$$$
>  <RESIDUES>
ESIAHIGDVMFTGTADGRVVKLEN [APMAP]

>  <ASSAY_READOUT>
protein stability index

>  <TEST_VALUE>
4.38

$$$$
>  <RESIDUES>
PAYVGPEILSSRASYSGKAADVWS [TRIB3]

>  <ASSAY_READOUT>
protein stability index

>  <TEST_VALUE>
3.18

$$$$

Ask | Fill in: protein stability index of RLAAIAQEKDQEMERLRELQRASI [FBF1] is ___
Reply | 4.43

Ask | Which protein stability index value belongs to VIMWDIGGRKGTAIELQGHNDRVQ [WDFY2] ?
Reply | 2.45

Ask | Which protein stability index value is on record for DENEDVNFDHFEILRAIGKGSFGK [STK32A] ?
Reply | 4.14

Ask | Report protein stability index for MAAGFPYALRAYLGYQAVPSGSSG [CEBPB] please.
Reply | 2.04

Ask | Given KKFRSSTSSSLGDKSEYLEMEEGV [KCNA4] , state its recorded protein stability index.
Reply | 4.91

Ask | Need protein stability index of KGKFSTDTKGKPTSRTQVYKPPAL [ZC2HC1A] , thanks.
Reply | 3.8

Ask | What value of protein stability index has been reported for the following sequence? AHRIAAQTLLGTAKMLLHEGQHPA [PYCR3]
Reply | 2.95

Ask | Look up protein stability index: KHLNASNPTEPATIIFTAAREGRE [TOR1AIP2]
Reply | 4.22

Ask | Entry under review: NVLLFKKQNPGKFCLLSCGILTFL [RETREG3] . Reported protein stability index?
Reply | 2.89

Ask | Given the entry QNVRNHIHSCFSDVTCFLLPHPGL [ATL3] , report its measured protein stability index.
Reply | 2.29

Ask | Sample APELLGGAEPGTYLTGTINGDPES [ADAMTS4] — what was its protein stability index?
Reply | 5.51
